Each entry below carries its reported pEC50.
# test-target: human GPR40 receptor (Homo sapiens (Human))
# Sequence (O14842 whole entry): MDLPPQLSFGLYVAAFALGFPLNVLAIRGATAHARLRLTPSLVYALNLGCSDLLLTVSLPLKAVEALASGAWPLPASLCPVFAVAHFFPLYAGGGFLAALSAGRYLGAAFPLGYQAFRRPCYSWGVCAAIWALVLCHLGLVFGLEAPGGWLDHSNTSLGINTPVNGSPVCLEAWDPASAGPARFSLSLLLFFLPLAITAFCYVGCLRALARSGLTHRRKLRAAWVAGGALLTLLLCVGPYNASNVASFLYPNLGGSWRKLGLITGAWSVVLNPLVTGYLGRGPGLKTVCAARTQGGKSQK
# measurement-notes: IP1 accumulation measurements using the IPOne assay system
# Format: cell-based
# measurement-conditions: 1321N1 cells stably expressing human GPR40, 1 h stimulation; read-out: EC50
Recall that pEC50 is obtained by taking minus log10 of the concentration measured in molar.

Examples from the recorded data:
[[record]]
structure_string = "Cc1cc(OCC2(C)COC2)cc(C)c1-c1ccc(F)c2c1CC[C@H]2Nc1ccc([C@H]2C[C@@H]2C(=O)O)nc1"
observed_result = 8.10

[[record]]
structure_string = "O=C(O)[C@H]1C[C@@H]1c1ccc(N[C@@H]2CCc3c(-c4ccccc4C(F)(F)F)ccc(F)c32)cn1"
observed_result = 7.57

[[record]]
structure_string = "COc1cnc(-c2ccc(-c3cccc4c3CC[C@H]4Nc3ccc([C@H]4C[C@@H]4C(=O)O)nc3)cc2)cn1"
observed_result = 7.62

[[record]]
structure_string = "Cc1cc(OCCC(C)(C)O)cc(C)c1-c1ccc(F)c2c1CC[C@H]2Nc1ccc([C@H]2C[C@@H]2C(=O)O)nc1"
observed_result = 8.40

[[record]]
structure_string = "Cc1cc(OCC(=O)O)cc(C)c1-c1ccc(F)c2c1CC[C@H]2Nc1ccc([C@H]2C[C@@H]2C(=O)O)nc1"
observed_result = 6.03


What value of pEC50 has been recorded for this entry: Cc1cc(-c2nnn(CC(C)(C)O)n2)cc(C)c1-c1ccc(F)c2c1CC[C@H]2Nc1ccc([C@H]2C[C@@H]2C(=O)O)nc1 8.70

What value of pEC50 has been recorded for this entry: Cc1cc(-c2ccn(C)c(=O)c2)cc(C)c1-c1ccc(F)c2c1CC[C@H]2Nc1ccc([C@H]2C[C@@H]2C(=O)O)nc1 8.40
